System: BT-549 breast
Experiment: NCI-60 one-dose screen, 48 h (100 = growth as untreated, 0 = no growth, -100 = all killed)
Conditions: 10 µM unless noted
This is part of a sample that, as a whole, favours compounds with a hit. Of some 83,000 tested, about 20% had one in any assay.
QUANTITY_KIND: growth (%)

COMPOUND	SYSTEM_TESTED	QUANTITY_KIND	UNIT	READOUT_VALUE
Nc1ccc2c(c1)C(=O)NC2=O	BT-549 breast	growth	%	117
CCCNc1nc(SC)nc(-c2cccc(N)c2)c1C#N	BT-549 breast	growth	%	97.7
O=C(CO[N+](=O)[O-])Nc1ccc(C(=O)/C=C/c2ccc3c(c2)OCO3)cc1	BT-549 breast	growth	%	87.6
COc1ncc(-c2ccc3ncnc(Nc4cccc(Cl)c4)c3c2)cc1NS(C)(=O)=O	BT-549 breast	growth	%	25.3
CCOC(=O)/C=C/c1ccc(C(=O)OCC)[nH]1	BT-549 breast	growth	%	88.2
CC/C(=C(\c1ccccc1)c1ccc(OCCNC)cc1)c1ccccc1	BT-549 breast	growth	%	-91.2
Cn1c(=O)c2[nH]c(C(O)C(O)C(O)C(O)CO)nc2n(C)c1=O (stereo not drawn)	BT-549 breast	growth	%	108
CCCCCCCCOC(=O)CC[C@@H](C)[C@H]1CC[C@H]2[C@@H]3[C@H](OC(=O)CCN)C[C@@H]4C[C@H](OC(=O)CCN)CC[C@]4(C)[C@H]3C[C@H](OC(=O)CCN)[C@]12C	BT-549 breast	growth	%	124
CCOC(=O)c1cnc2cc(Cl)c(F)cc2c1Nc1cccc(NS(C)(=O)=O)c1	BT-549 breast	growth	%	105
CC(=O)OC1Oc2cc(C)c(C)cc2-c2oc(=O)c(-c3cc4ccc(N(C)C)cc4oc3=O)cc21 (stereo not drawn)	BT-549 breast	growth	%	59.3
CN1CCN(Cc2ccc(NC(=O)c3[nH]ncc3Nc3ncnc4[nH]ccc34)cc2)CC1	BT-549 breast	growth	%	-76.2
Nc1nc2ccc(-c3nc4ccc5[nH]ncc5c4c4c3CCC4)cc2s1	BT-549 breast	growth	%	47.1
O=C1C[C@H](Sc2nc(-c3ccc(F)cc3)cc(C(F)(F)F)n2)[C@H]2CO[C@@H]1O2	BT-549 breast	growth	%	111
CC(=O)C1=C(O)C=C2Oc3c(C(=O)/C=C/c4cc(Cl)cc(Cl)c4)c(O)c(C)c(O)c3[C@]2(C)C1=O	BT-549 breast	growth	%	-19.9
O=C(COCc1c(-c2ccccc2)no[n+]1[O-])Nc1ccc(C(=O)/C=C/c2ccc3c(c2)OCO3)cc1	BT-549 breast	growth	%	96
COc1ccc(S(=O)(=O)NCCCNc2cc(-c3c(-c4cccc(OC)c4)nc4sccn34)ccn2)cc1	BT-549 breast	growth	%	45.1
COc1cc(C2C(C(=O)c3cccs3)=C(O)C(=O)N2CCN2CCOCC2)cc(OC)c1OC (stereo not drawn)	BT-549 breast	growth	%	107
Oc1cc(O)c2c(=S)cc(-c3ccc(Cl)cc3)oc2c1	BT-549 breast	growth	%	38.4
O=c1c2cccc3c(NC4CCCCC4)ccc(c32)c2nc3ccccc3n12	BT-549 breast	growth	%	94.1
CCOC(=O)C(CC)n1c(=O)c2cc(OC)c(OC)cc2c2cnc3[nH]ccc3c21 (stereo not drawn)	BT-549 breast	growth	%	47.6
CN1CCN(Cc2ccc(NC(=O)c3[nH]ncc3Nc3ncnc4sccc34)cc2)CC1	BT-549 breast	growth	%	-5.78
O=C(Nc1ccc(Nc2cc(Nc3ccccc3)ncn2)cc1)Nc1cc(C(F)(F)F)ccc1F	BT-549 breast	growth	%	85.3
O=C1Nc2ccc(Br)cc2C12CC(c1ccccc1)=NN2 (stereo not drawn)	BT-549 breast	growth	%	47.8
COc1ccccc1N1CCN(CCn2c(=O)c3c(c4ccccc4n3C)n(C)c2=O)CC1	BT-549 breast	growth	%	99.3
O=[N+]([O-])c1cccc(-c2nc3sccn3c2-c2ccnc(NCCCNS(=O)(=O)c3ccc(Br)cc3)n2)c1	BT-549 breast	growth	%	38
O=C1c2cccnc2C(=O)c2c1c(C(=O)OCCN1CCCCC1)c1ccccn21	BT-549 breast	growth	%	20.1
O=C(O)c1c([N+](=O)[O-])cnc2ccccc12	BT-549 breast	growth	%	96.7
CCC(C)[C@@H]1NC(=O)[C@@H]2CCCN2C(=O)[C@H](Cc2ccccc2)NC(=O)[C@@H]2CCCN2C(=O)[C@H](Cc2ccccc2)NC(=O)[C@@H]2CCCN2C(=O)[C@H](Cc2ccccc2)NC1=O (stereo partly drawn)	BT-549 breast	growth	%	109
COc1ccc2nc3cc(Cl)ccc3c(NCCNCC(O)CO)c2c1 (stereo not drawn)	BT-549 breast	growth	%	44.3
O=C(Nc1ccc(Oc2ccc(F)cc2)c(Cl)c1)c1cccnc1	BT-549 breast	growth	%	92.5
CCCCCCCCCCCCCCCC[N+]1(CC)CCCC1	BT-549 breast	growth	%	-25.8
COc1ccc(-c2nn(-c3ccccc3)cc2/C=C/C(=O)OCc2cn(-c3ccc(F)c(Cl)c3)nn2)cc1	BT-549 breast	growth	%	101
CCOC(=O)N1CCN(c2nc(Nc3cc(C)[nH]n3)c3ccccc3n2)CC1	BT-549 breast	growth	%	56.8
CCCCCCCCCCCCCCCCNCCC[C@@H](C)[C@H]1CC[C@H]2[C@@H]3[C@H](OCCCN)C[C@@H]4C[C@H](OCCCN)CC[C@]4(C)[C@H]3C[C@H](OCCCN)[C@]12C	BT-549 breast	growth	%	-26
C[C@@H]1CCC2=C(CCC[C@]2(C)C(=O)O)[C@@]1(C)CCc1ccoc1	BT-549 breast	growth	%	117
O=C1C=CC(Nc2ccccc2[N+](=O)[O-])C1Nc1ccccc1[N+](=O)[O-] (stereo not drawn)	BT-549 breast	growth	%	-58.7
CC(C)n1cc2c(N)ncnc2n1	BT-549 breast	growth	%	101
Cl/C(=N\Nc1ccccc1)c1ccccc1	BT-549 breast	growth	%	98.8
